The origin of these recorded values is the supplement of paper PMC6555819.

tested on: RARb homodimer (NR concentration 270 nM); test: PBM binding z-score (relative to random genomic background probes); higher = stronger binding; sequences stand for … in GC…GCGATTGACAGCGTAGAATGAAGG
Hi, to clarify the labels: yes (1) covers PBM binding z-score from 1 upward, no (0) covers anything below 1.

Consider the following illustrative entries.
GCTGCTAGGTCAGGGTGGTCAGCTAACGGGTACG; yes (1)
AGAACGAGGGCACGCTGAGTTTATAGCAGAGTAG; yes (1)
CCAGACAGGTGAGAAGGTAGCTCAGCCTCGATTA; no (0)
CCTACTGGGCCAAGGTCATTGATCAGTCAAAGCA; yes (1)
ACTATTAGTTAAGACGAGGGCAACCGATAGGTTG; yes (1)

Consider the additional sequence presented here.
Is the recorded value of PBM binding z-score equal to or greater than 1 for this sequence? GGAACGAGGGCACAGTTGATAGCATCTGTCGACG no (0)

###

test system: RARg homodimer (NR concentration 270 nM); assay: PBM binding z-score (relative to random genomic background probes); higher = stronger binding; sequences stand for … in GC…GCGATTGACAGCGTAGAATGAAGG
Measured parameter: PBM binding z-score

Examples from the recorded data:
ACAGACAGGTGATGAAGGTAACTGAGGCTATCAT; 0.603
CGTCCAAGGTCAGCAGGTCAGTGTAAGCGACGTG; 6.61
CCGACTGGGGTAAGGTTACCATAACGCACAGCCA; 0.859
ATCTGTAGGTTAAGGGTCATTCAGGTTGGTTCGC; 3.89
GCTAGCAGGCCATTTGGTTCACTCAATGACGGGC; -0.168
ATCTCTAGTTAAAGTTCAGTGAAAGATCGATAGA; 2.04
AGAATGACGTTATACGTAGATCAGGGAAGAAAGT; 0.109
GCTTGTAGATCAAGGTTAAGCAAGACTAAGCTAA; 0.359

Consider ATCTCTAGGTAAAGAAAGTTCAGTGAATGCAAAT . Its measured PBM binding z-score is 1.59

Consider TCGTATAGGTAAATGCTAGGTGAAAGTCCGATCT . Its measured PBM binding z-score is 0.0931

###

system: PPARg:RXRa 30nM:10nM, anti-RXR (NR concentration 30 nM, RXRa partner concentration 10 nM); experiment: PBM binding z-score (relative to random genomic background probes); higher = stronger binding; sequences stand for … in GC…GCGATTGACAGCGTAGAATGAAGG
Listed sequences paired with reported PBM binding z-score
Give the figure only, with no unit attached.

Examples from the recorded data:
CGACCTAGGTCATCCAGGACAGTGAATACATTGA; 1.07
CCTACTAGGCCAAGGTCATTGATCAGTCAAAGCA; 2.19
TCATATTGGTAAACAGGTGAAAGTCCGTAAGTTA; 4.04
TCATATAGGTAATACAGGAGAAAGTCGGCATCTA; 3.96
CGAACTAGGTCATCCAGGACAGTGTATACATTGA; 3.25

Consider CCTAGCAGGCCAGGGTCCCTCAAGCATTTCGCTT . Its measured PBM binding z-score is -1.41

Consider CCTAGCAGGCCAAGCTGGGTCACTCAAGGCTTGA . Its measured PBM binding z-score is -0.847

Consider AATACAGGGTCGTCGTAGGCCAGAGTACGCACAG . Its measured PBM binding z-score is 0.194

Consider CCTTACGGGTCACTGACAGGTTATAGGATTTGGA . Its measured PBM binding z-score is 1.48

Consider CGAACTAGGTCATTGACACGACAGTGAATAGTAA . Its measured PBM binding z-score is 3.95

Consider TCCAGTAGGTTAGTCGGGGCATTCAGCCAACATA . Its measured PBM binding z-score is 2.7

Consider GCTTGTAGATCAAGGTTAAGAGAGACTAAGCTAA . Its measured PBM binding z-score is 0.342

Consider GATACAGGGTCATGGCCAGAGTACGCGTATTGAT . Its measured PBM binding z-score is 2.73

Consider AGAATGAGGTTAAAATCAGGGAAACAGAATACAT . Its measured PBM binding z-score is 0.879

Consider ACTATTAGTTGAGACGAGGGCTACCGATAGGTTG . Its measured PBM binding z-score is 0.174

Consider ATCTCTAGGTAAGTCTCAGTTCAGTGAAGAACGC . Its measured PBM binding z-score is 0.236

Consider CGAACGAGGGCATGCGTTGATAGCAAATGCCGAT . Its measured PBM binding z-score is -0.693
